# Test system: renal cells of ICR mice
# assay comment: Comet assay (DNA damage), renal cells
# Type: in vivo
# measurement parameters: AA analogues 20.0 mg/kg, EMS 577.6 mg/kg, three consecutive days; 5 animals/group, 100 cells
Note to self: Kidney Olive Tail Moment under 0.8 μm means t, ties and anything higher get f.

>>> cat("CCOS(C)(=O)=O [EMS, ethyl methanesulfonate, reference compound]")
"f"
>>> cat("COc1cccc2c1cc1c3c(cc4c(c32)OCO4)C(=O)N1")
"t"
>>> cat("COc1cccc2c1cc([N+](=O)[O-])c1c(C(=O)O)cc3c(c12)OCO3")
"f"
>>> cat("COc1cc(O)cc2c1cc([N+](=O)[O-])c1c(C(=O)O)cc3c(c12)OCO3")
"t"
>>> cat("O=C(O)c1cc2c(c3c1c([N+](=O)[O-])cc1ccc(O)cc13)OCO2")
"t"

----------
# Tested on: hepatocyte cells of ICR mice
# assay comment: Comet assay (DNA damage), hepatocyte cells
# Type: in vivo
# measurement parameters: AA analogues 20 mg/kg, EMS 577.6 mg/kg, three days
# Experimental: ICR mice were separated into seven groups (n = 5 for each group) and administrated with saline, EMS (577.6 mg/kg), AA I (20 mg/kg), AA II (20 mg/kg), AA IIIa (20 mg/kg), AA IVa (20 mg/kg), or AL I (20 mg/kg) for three consecutive days, respectively. […] A total of one hundred cells from kidney or liver tissues of each animal were analyzed. The mean, standard deviation (SD) of tail DNA%, and the median of olive tail moment were calculated. […]
test readout: DNA damage in hepatocyte cells (comet shape)

>>> result("COc1cccc2c1cc1c3c(cc4c(c32)OCO4)C(=O)N1 [AL I, aristolactam I]")
"No DNA damage"
>>> result("COc1cc(O)cc2c1cc([N+](=O)[O-])c1c(C(=O)O)cc3c(c12)OCO3 [AA IVa, aristolochic acid IVa]")
"No DNA damage"
>>> result("O=C(O)c1cc2c(c3c1c([N+](=O)[O-])cc1ccc(O)cc13)OCO2 [AA IIIa, aristolochic acid IIIa]")
"No DNA damage"
>>> result("O=C(O)c1cc2c(c3c1c([N+](=O)[O-])cc1ccccc13)OCO2 [AA II, aristolochic acid II]")
"No DNA damage"

----------
# Tested on: renal cells of ICR mice
# assay comment: Comet assay (DNA damage), renal cells
# Assay type: in vivo
# measurement parameters: AA analogues 20.0 mg/kg, EMS 577.6 mg/kg, three consecutive days; 5 animals/group, 100 cells
test readout: Kidney Tail DNA% (%)

>>> result("COc1cc(O)cc2c1cc([N+](=O)[O-])c1c(C(=O)O)cc3c(c12)OCO3")
2.80
>>> result("O=C(O)c1cc2c(c3c1c([N+](=O)[O-])cc1ccccc13)OCO2")
3.08
>>> result("COc1cccc2c1cc([N+](=O)[O-])c1c(C(=O)O)cc3c(c12)OCO3")
15.39
>>> result("COc1cccc2c1cc1c3c(cc4c(c32)OCO4)C(=O)N1")
3.12
>>> result("O=C(O)c1cc2c(c3c1c([N+](=O)[O-])cc1ccc(O)cc13)OCO2")
2.60
>>> result("CCOS(C)(=O)=O [EMS, ethyl methanesulfonate, reference compound]")
40.97

----------
# Tested on: hepatocyte cells of ICR mice
# assay comment: Comet assay (DNA damage), hepatocyte cells
# Assay type: in vivo
# measurement parameters: AA analogues 20.0 mg/kg, EMS 577.6 mg/kg, three consecutive days; 5 animals/group, 100 cells
test readout: Liver Olive Tail Moment (μm)

>>> result("CCOS(C)(=O)=O [EMS, ethyl methanesulfonate, reference compound]")
33.60
>>> result("COc1cccc2c1cc([N+](=O)[O-])c1c(C(=O)O)cc3c(c12)OCO3")
0.88
>>> result("O=C(O)c1cc2c(c3c1c([N+](=O)[O-])cc1ccc(O)cc13)OCO2")
0.92
>>> result("O=C(O)c1cc2c(c3c1c([N+](=O)[O-])cc1ccccc13)OCO2")
0.89
>>> result("COc1cccc2c1cc1c3c(cc4c(c32)OCO4)C(=O)N1")
0.74
>>> result("COc1cc(O)cc2c1cc([N+](=O)[O-])c1c(C(=O)O)cc3c(c12)OCO3")
0.81

----------
# Tested on: hepatocyte cells of ICR mice
# assay comment: Comet assay (DNA damage), hepatocyte cells
# Type: in vivo
# measurement parameters: AA analogues 20.0 mg/kg, EMS 577.6 mg/kg, three consecutive days; 5 animals/group, 100 cells
test readout: Liver Tail DNA%

>>> result("CCOS(C)(=O)=O [EMS, ethyl methanesulfonate, reference compound]")
"55.18±6.23 %"
>>> result("COc1cc(O)cc2c1cc([N+](=O)[O-])c1c(C(=O)O)cc3c(c12)OCO3 [AA IVa, aristolochic acid IVa]")
"2.98±0.22%"
>>> result("O=C(O)c1cc2c(c3c1c([N+](=O)[O-])cc1ccc(O)cc13)OCO2 [AA IIIa, aristolochic acid IIIa]")
"3.09±0.47%"
>>> result("COc1cccc2c1cc([N+](=O)[O-])c1c(C(=O)O)cc3c(c12)OCO3 [AA I, aristolochic acid I]")
"2.92±0.54%"
>>> result("O=C(O)c1cc2c(c3c1c([N+](=O)[O-])cc1ccccc13)OCO2 [AA II, aristolochic acid II]")
"3.37±0.42%"
>>> result("COc1cccc2c1cc1c3c(cc4c(c32)OCO4)C(=O)N1 [AL I, aristolactam I]")
"3.26±0.52%"

----------
# System: HK-2 cells
# assay comment: cells
# Type: cell-based, human
# measurement parameters: Homo sapiens, HK-2, 24 h
test readout: IC50 (µM)

>>> result("COc1cccc2c1cc([N+](=O)[O-])c1c(C(=O)O)cc3c(c12)OCO3")
197
